Test system: HSSY-II complex spheroid growth, percent test/control
method-summary: Anticancer human tumor HSSY-II cell line growth inhibition [Asc];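 further: spheroids exposed to drug for 7 days before reading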
condition: second compound 1 µM; first compound 0.1 µM; hits give low values
Simple rule here: viability, T/C less than 90% is True, otherwise False.

molecule	class-assignment
NC1CCC(NC2CC2c2ccccc2)CC1 (stereo unspecified) + Cc1c(S(C)(=O)=O)c(-c2cc(F)cc(N3CCN(c4ccc(NS(=O)(=O)c5ccc(NC(CCN6CCC(C(=O)OCCCP(=O)(O)O)CC6)CSc6ccccc6)c(S(=O)(=O)C(F)(F)F)c5)cc4)CC3)c2)c(-c2ccc(Cl)cc2)n1C(C)C	True
CNC(C)C(=O)NC1CN(S(=O)(=O)c2cccc(S(=O)(=O)N3CCC4CCC(C(=O)NC(c5ccccc5)c5ccccc5)N4C(=O)C(NC(=O)C(C)NC)C3)c2)CCC2CCC(C(=O)NC(c3ccccc3)c3ccccc3)N2C1=O (stereo unspecified) + Cc1c(S(C)(=O)=O)c(-c2cc(F)cc(N3CCN(c4ccc(NS(=O)(=O)c5ccc(NC(CCN6CCC(C(=O)OCCCP(=O)(O)O)CC6)CSc6ccccc6)c(S(=O)(=O)C(F)(F)F)c5)cc4)CC3)c2)c(-c2ccc(Cl)cc2)n1C(C)C	True
C#Cc1c(F)ccc2cc(O)cc(-c3ncc4c(N5CC6CCC(C5)N6)nc(OCC56CCCN5CC(F)C6)nc4c3F)c12 (stereo unspecified) + Cc1c(S(C)(=O)=O)c(-c2cc(F)cc(N3CCN(c4ccc(NS(=O)(=O)c5ccc(NC(CCN6CCC(C(=O)OCCCP(=O)(O)O)CC6)CSc6ccccc6)c(S(=O)(=O)C(F)(F)F)c5)cc4)CC3)c2)c(-c2ccc(Cl)cc2)n1C(C)C	False
C=CC(=O)N1CCN(c2nc(=O)n(-c3c(C)ccnc3C(C)C)c3nc(-c4c(O)cccc4F)c(F)cc23)C(C)C1 (stereo unspecified) + Cc1c(S(C)(=O)=O)c(-c2cc(F)cc(N3CCN(c4ccc(NS(=O)(=O)c5ccc(NC(CCN6CCC(C(=O)OCCCP(=O)(O)O)CC6)CSc6ccccc6)c(S(=O)(=O)C(F)(F)F)c5)cc4)CC3)c2)c(-c2ccc(Cl)cc2)n1C(C)C	False
O=C(c1cc(Cc2n[nH]c(=O)c3ccccc23)ccc1F)N1CCN(C(=O)C2CC2)CC1 + CNC(C)C(=O)NC1CN(S(=O)(=O)c2cccc(S(=O)(=O)N3CCC4CCC(C(=O)NC(c5ccccc5)c5ccccc5)N4C(=O)C(NC(=O)C(C)NC)C3)c2)CCC2CCC(C(=O)NC(c3ccccc3)c3ccccc3)N2C1=O	False

The reported numbers originate from PubChem BioAssay AID1963444.
